tested_on: CXCR7 point mutants (Homo sapiens, UniProt P25106, W19A)
Sequence (P25106 whole entry W19A): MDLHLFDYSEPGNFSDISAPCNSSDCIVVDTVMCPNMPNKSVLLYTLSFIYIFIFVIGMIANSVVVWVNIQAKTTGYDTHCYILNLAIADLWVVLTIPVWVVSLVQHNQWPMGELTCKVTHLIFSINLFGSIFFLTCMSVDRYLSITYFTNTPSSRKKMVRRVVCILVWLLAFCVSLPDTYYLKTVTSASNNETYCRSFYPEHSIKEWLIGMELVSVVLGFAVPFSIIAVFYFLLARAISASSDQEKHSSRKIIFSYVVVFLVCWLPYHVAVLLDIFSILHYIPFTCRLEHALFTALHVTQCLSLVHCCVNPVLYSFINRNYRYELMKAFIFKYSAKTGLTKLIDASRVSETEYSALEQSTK
protocol_details: Binding to a set of 10 point mutants of CXCR7
test_context: W19A point mutant

molecule	effect of W19A mutation on binding
08A10: Nanobody against human CXCR7, Group 2 (protein, Nanobody, Nanobody constructs or fragments thereof) VHH: EVQLVESGGGLVQAGGSLRLSCAASGSIFSIAAMGWYRQATGKQRELVATITDGGTTTYADSVKGRVTISRDRSANTVYLAMNNLKPDDTAVYYCYAYLRYTSRVPGDNYWGQGTQVTVSS	did not affect
08A05: Nanobody against human CXCR7, Group 2 (protein, Nanobody, Nanobody constructs or fragments thereof) VHH: EVQLVESGGGLVQAGDSLRLSCAASGLTFSNYDMGWFRQAPGKEREFVGASWWSGGAPYYSDSVKGRFTISRDNAKNTVYLQANSLRPEDTAVYYCAAKRLRSFASGGSYDYWGQGTQVTVSS	did not affect
